compounds and their reported inhibition at 10 µM
tested on: Leukemia Cell Line MOLT-4; type: cell-based; conditions: Homo sapiens, MOLT-4, read-out: inhibition of proliferation

SMILES TEXT	inhibition at 10 µM
CC[C@H](Nc1ncnc2[nH]cnc12)c1nc2cccc(NCc3ccc(C(=O)NO)nc3)c2c(=O)n1-c1ccccc1	> 50%
CC[C@H](Nc1nc(N)nc(C)c1C#N)c1nc2cccc(NCc3ccc(C(=O)NO)cc3)c2c(=O)n1-c1ccccc1	> 50%
CC[C@H](Nc1cc(C)nc(N)n1)c1nc2cccc(NCc3ccc(C(=O)NO)cc3)c2c(=O)n1-c1ccccc1	> 50%
CC[C@H](Nc1ncnc2[nH]cnc12)c1nc2cccc(CCCCC(=O)NO)c2c(=O)n1-c1ccccc1	25 to 50%

* * *

test system: Melanoma Cell Line UACC-62; assay: cells; assay type: cell-based; details: Homo sapiens, UACC-62, read-out: inhibition of proliferation
READOUT TYPE: inhibition at 10 µM

COMPOUND	RESULT VALUE
CC[C@H](Nc1nc(N)nc(C)c1C#N)c1nc2cccc(NCc3ccc(C(=O)NO)cc3)c2c(=O)n1-c1ccccc1 [Compound XL]	> 50%
CC[C@H](Nc1ncnc2[nH]cnc12)c1nc2cccc(CCCCNC(=O)NO)c2c(=O)n1-c1ccccc1 [Compound XXIV]	25 to 50%
CC[C@H](Nc1cc(C)nc(N)n1)c1nc2cccc(NCc3ccc(C(=O)NO)cc3)c2c(=O)n1-c1ccccc1 [XLI]	> 50%
CC[C@H](Nc1ncnc2[nH]cnc12)c1nc2cccc(NCc3ccc(C(=O)NO)nc3)c2c(=O)n1-c1ccccc1 [V]	> 50%

Data provenance is patent US20200165257A1.
